Hey, just so you know, these numbers are from paper PMC5830651.

target: ABL (Homo sapiens, UniProt P00519); construct: recombinant; assay: in vitro kinase assay
Sequence (P00519 whole entry): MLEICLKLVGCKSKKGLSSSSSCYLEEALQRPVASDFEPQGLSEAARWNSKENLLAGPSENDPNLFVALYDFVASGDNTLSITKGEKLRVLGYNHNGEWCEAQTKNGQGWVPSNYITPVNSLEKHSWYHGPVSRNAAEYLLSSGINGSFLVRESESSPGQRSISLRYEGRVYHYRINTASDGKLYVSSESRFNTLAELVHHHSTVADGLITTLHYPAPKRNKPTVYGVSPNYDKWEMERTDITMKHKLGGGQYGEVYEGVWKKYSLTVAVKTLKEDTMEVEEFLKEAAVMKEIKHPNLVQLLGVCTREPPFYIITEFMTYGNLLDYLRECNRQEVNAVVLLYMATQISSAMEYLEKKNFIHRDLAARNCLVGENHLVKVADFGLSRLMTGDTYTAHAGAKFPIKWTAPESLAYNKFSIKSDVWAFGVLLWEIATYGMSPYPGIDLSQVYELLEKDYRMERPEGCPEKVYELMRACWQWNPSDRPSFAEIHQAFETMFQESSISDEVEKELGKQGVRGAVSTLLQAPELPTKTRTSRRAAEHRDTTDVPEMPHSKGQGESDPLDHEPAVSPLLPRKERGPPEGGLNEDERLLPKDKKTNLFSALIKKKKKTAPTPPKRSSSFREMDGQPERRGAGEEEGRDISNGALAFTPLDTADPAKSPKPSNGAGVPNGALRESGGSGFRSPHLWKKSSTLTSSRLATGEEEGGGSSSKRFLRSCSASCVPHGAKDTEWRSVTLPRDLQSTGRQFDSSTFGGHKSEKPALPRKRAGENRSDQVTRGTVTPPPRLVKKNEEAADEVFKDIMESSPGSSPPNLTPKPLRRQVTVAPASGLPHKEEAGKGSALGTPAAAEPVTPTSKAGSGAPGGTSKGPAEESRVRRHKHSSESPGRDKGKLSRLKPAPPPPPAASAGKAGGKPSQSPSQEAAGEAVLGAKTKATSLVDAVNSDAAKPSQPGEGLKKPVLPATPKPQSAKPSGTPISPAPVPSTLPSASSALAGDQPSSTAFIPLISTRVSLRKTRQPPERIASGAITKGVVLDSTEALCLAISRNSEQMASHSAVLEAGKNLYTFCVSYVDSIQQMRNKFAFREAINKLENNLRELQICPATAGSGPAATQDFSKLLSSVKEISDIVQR
pIC50: −log10 of the molar value.
result-type: pIC50

Asked: Given CC[C@H](Nc1nc(NCc2cccnc2)c2ncn(C(C)C)c2n1)[C@@H](C)O , state its recorded pIC50.
Given back: < 5.00

* * *

biological target: PDGFB (Homo sapiens, UniProt P09619); construct: recombinant kinase; printed PDGFB, must be the receptor kinase PDGFR beta; assay: in vitro kinase assay
Sequence (P09619 33-1106): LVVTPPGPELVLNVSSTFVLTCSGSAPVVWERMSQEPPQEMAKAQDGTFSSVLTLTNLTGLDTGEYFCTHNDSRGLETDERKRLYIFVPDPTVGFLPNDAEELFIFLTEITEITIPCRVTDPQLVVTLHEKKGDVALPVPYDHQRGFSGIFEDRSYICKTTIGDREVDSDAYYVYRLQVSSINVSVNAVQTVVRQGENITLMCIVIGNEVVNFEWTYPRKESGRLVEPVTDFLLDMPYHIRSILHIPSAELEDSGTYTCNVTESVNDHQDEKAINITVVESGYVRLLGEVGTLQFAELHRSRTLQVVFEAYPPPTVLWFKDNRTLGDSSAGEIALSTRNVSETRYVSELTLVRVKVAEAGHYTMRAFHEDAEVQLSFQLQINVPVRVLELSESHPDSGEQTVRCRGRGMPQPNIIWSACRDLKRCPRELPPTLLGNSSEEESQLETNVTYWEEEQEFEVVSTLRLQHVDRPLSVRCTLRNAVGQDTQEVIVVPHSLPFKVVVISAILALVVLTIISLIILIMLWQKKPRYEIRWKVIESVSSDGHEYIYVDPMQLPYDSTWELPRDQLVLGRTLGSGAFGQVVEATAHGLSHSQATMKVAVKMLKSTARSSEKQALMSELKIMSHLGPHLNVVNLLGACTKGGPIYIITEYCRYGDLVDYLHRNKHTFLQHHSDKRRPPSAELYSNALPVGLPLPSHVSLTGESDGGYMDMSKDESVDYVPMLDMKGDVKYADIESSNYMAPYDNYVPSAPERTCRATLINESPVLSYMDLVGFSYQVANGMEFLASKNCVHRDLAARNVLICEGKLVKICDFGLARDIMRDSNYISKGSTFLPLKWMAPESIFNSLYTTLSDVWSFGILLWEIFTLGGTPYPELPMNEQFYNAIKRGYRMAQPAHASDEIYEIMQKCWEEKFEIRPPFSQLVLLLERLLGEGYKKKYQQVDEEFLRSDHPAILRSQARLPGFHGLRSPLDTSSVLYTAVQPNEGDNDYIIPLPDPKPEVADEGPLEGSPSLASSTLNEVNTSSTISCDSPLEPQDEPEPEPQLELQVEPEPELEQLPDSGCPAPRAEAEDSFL
pIC50: −log10 of the molar value.
result-type: pIC50

Asked: Which pIC50 value belongs to CC[C@H](Nc1nc(NCc2cccnc2)c2ncn(C(C)C)c2n1)[C@@H](C)O [CCT068127] ?
Given back: < 5.00
